test system: hedgehog signaling pathway; assay: Gli-Luc Reporter Assay for Hh Pathway Inhibition (TMHh-12 cells, pTA-8×Gli-Luc reporter); type: cell-based, Mouse; details: Mus musculus, TMHh12, enzymatic and cellular assays for the inhibition of hedgehog signaling pathways; read-out: IC50 Ranges
pIC50: −log10 of the molar value.
Measured pIC50 values are reported for all entries that follow.

Request: For the compound Cc1ccc(Nc2cccc3c2CCN(S(C)(=O)=O)C3)cc1-c1ccc(C#N)nc1 , what pIC50 is on record?
Response: 7.00 to 8.00

Request: Quick check: pIC50 of Cc1ccc(Nc2cccc3c2CCN(S(C)(=O)=O)C3)cc1-c1ccc(F)cc1 ?
Response: 6.00 to 7.00

Request: Reported pIC50, compound Cc1ccc(Nc2cccc3c2CCN([C@H]2CCS(=O)(=O)C2)C3)cc1-c1ncccc1F : ____
Response: 9.00 to 12.00

Request: If you can, please state the reported pIC50 value of Cc1ccc(Nc2ncnc3c2CCN(C2CS(=O)(=O)C2)C3)cc1-c1cc2ccccc2cn1 .
Response: 7.00 to 8.00

---

test system: hedgehog signaling pathway; assay: Gli-Luc Reporter Assay for Hh Pathway Inhibition (TMHh-12 cells, pTA-8×Gli-Luc reporter); format: cell-based, Mouse; conditions: Mus musculus, TMHh12, enzymatic and cellular assays for the inhibition of hedgehog signaling pathways; read-out: IC50 Ranges
ENDPOINT LABEL: IC50

Record excerpt, results attached:
> print(dat)
                                   compound  endpoint.label         result
1  OCC1(N2CCc3c(cccc3Nc3ccc(Cl)c(-c4ncc(-c5ccccc5)[nH]4)c3)C2)CC1 [Compound 84]            IC50  0.001 to 1 nM
2  Cc1ccc(Nc2cccc3c2CCN(C2CS(=O)(=O)C2)C3)cc1-c1ncc(F)cc1F [Compound 325]            IC50  0.001 to 1 nM
3  Cc1ccc(Nc2nccc3c2CCN(C2CS(=O)(=O)C2)C3)cc1-c1cc2ccccc2cn1 [Compound 332]            IC50   10 to 100 nM
4  Clc1ccc(Nc2cccc3c2CCN(C2CCOCC2)C3)cc1-c1ncc(-c2ccccc2)[nH]1 [Compound 29]            IC50  0.001 to 1 nM
5  CC(C)C(=O)N1CCc2c(cccc2Nc2ccc(Cl)c(-c3ncc(-c4ccccc4)[nH]3)c2)C1 [Compound 55]            IC50     1 to 10 nM

Request: If you can, please state the reported IC50 value of Cc1ccc(Nc2cccc3c2CCN(S(C)(=O)=O)C3)cc1-c1ccccc1 [Compound 115] .
Response: 100 to 1000 nM

Request: I'd like to know its IC50. The compound in question is CCN1CCC(N2CCc3ccc(Nc4ccc(Cl)c(-c5nc(-c6ccccc6)c[nH]5)c4)cc3C2)CC1 [Compound 347]
Response: 10 to 100 nM

Request: Requested read-out: IC50. Entry: Cc1ccc(Nc2cccc3c2CCN(CCC(F)(F)F)C3)cc1-c1ccc(C#N)cn1 [Compound 196]
Response: 1 to 10 nM

---

Form field: IC50 (one value per entry).
test system: hedgehog signaling pathway; assay: Gli-Luc Reporter Assay for Hh Pathway Inhibition (TMHh-12 cells, pTA-8×Gli-Luc reporter); assay type: cell-based, Mouse; conditions: Mus musculus, TMHh12, enzymatic and cellular assays for the inhibition of hedgehog signaling pathways; read-out: IC50 Ranges

> print(dat)
                                 mol.smiles  endpoint.label          result
1  Cc1ccc(-c2nc(Nc3cccc4c3CCN(CCS(C)(=O)=O)C4)ccc2Cl)nc1            IC50      1 to 10 nM
2  OC[C@@H](O)CN1CCc2c(cccc2Nc2ccc(Cl)c(-c3ncc(-c4ccccc4)[nH]3)c2)C1            IC50      1 to 10 nM
3  COc1ccc(-c2cnc(-c3cc(Nc4cccc5c4CCN(S(C)(=O)=O)C5)ccc3C)[nH]2)cn1            IC50   0.001 to 1 nM
4  Cc1ccc(Nc2cccc3c2CCN(S(C)(=O)=O)C3)cc1Oc1ccccc1            IC50  100 to 1000 nM
5  CCOc1ccc(-c2cc(Nc3cccc4c3CCN(C3CS(=O)(=O)C3)C4)ccc2C)nn1            IC50      1 to 10 nM

Request: Entry Cc1ccc(-c2cc(Nc3cccc4c3CCN(CCC(F)(F)F)C4)ccc2C)nc1 has what IC50?
Response: 0.001 to 1 nM

Request: Requested read-out: IC50. Entry: Cc1ccc(Nc2cccc3c2CCN(C[C@H](O)CO)C3=O)cc1-c1nc2ccccc2[nH]1
Response: 10 to 100 nM

Request: Which IC50 is reported for this compound? CS(=O)(=O)N1CCc2c(cccc2Nc2ccc(C(=O)O)c(-c3ccc(C#N)cc3)c2)C1
Response: > 10000 nM
